- Assay System: Serine/threonine-protein kinase mTOR (Homo sapiens) (UniProt P42345)
- Condition Info: at 10 µM
Readout: residual activity (%)
Numeric only. Scale: %

Lookup: Provide measured residual activity value, entry: "O=C1NC(=O)c2cc(Nc3ccc(F)cc3)c(Nc3ccc(F)cc3)cc21"
Found: 85

Lookup: Provide measured residual activity value, entry: "CC(C)n1cnc2/c(=N/c3cccc(Cl)c3)nc(NCCO)[nH]c21"
Found: 101

Lookup: Provide measured residual activity value, entry: "CNc1cc2c(Nc3cccc(Br)c3)ncnc2cn1"
Found: 107

Lookup: Provide measured residual activity value, entry: "COc1ccc(OC)c2c(=S)c3ccccc3[nH]c12"
Found: 76

====

- Assay System: Mitogen-activated protein kinase kinase kinase 7 (Homo sapiens)
- Condition Info: at 10 µM
Readout: residual activity (%)
Numeric only. Scale: %

>>> df
                              line_notation                              assay_system            readout  number
0  Oc1ccc(-c2nc(-c3ccc(F)cc3)c(-c3ccncc3)[nH]2)cc1  Mitogen-activated protein kinase kinase kinase 7 (Homo sapiens)  residual activity     101
1       CCN(CC)CCCCN1c2ccccc2Oc2ccc(Cl)cc21  Mitogen-activated protein kinase kinase kinase 7 (Homo sapiens)  residual activity      90
2  O=C(O)c1ccc2c3c1cccc3c(=O)n1c3ccccc3nc21  Mitogen-activated protein kinase kinase kinase 7 (Homo sapiens)  residual activity      41

Then this compound:
Lookup: Provide measured residual activity value, entry: "N#CCCc1ccc2c(c1)-c1[nH]c3ccc([N+](=O)[O-])cc3c1CC(=O)N2"
Found: 21

====

- Assay System: Calcium/calmodulin-dependent protein kinase type II subunit delta (Homo sapiens)
- Condition Info: at 1 µM
# if measured residual activity < 80%: t  # else: f

For orientation, consider the following solved cases.
>>> print(df.to_string())
                              line_notation  qualitative_label
0      c1ccc(-c2n[nH]cc2-c2ccnc3ccccc23)nc1                  f
1  O=c1cc(-c2cccc3c2Sc2ccccc2S3)oc(N2CCOCC2)c1                  f
2       Cn1cnc2cc3c(Nc4cccc(Br)c4)ncnc3cc21                  f
3  N#C/C(=C(\N)Sc1ccc(N)cc1)c1ccccc1C(F)(F)F                  t

Lookup: Please let me know if "O=C(Nc1cccc(Nc2cc(Nc3cccc(C(F)(F)F)c3)ncn2)c1)C1CC1" shows residual activity below 80%.
Found: f

Lookup: Please let me know if "O=C1NC(=O)/C(=C\c2ccc3nccnc3c2)S1" shows residual activity below 80%.
Found: t

Lookup: Please let me know if "Cc1ccc(S(=O)(=O)/C=C/C#N)cc1" shows residual activity below 80%.
Found: f

Lookup: Please let me know if "O=C1Nc2ccc(Br)cc2/C1=C\c1cc2c([nH]1)CCCC2" shows residual activity below 80%.
Found: t

Lookup: Please let me know if "Nc1nc(Nc2ccc(S(N)(=O)=O)cc2)nn1C(=S)Nc1c(F)cccc1F" shows residual activity below 80%.
Found: t

Lookup: Please let me know if "Cc1nc2cc3nc(-c4cccs4)cnc3cc2n1C" shows residual activity below 80%.
Found: f

Lookup: Please let me know if "Oc1ccc(Nc2nc(-c3ccc(Cl)cc3)cs2)cc1" shows residual activity below 80%.
Found: f

Lookup: Please let me know if "CCOc1cc2ncnc(Nc3cccc(Br)c3)c2cc1OCC" shows residual activity below 80%.
Found: f

Lookup: Please let me know if "Cc1cc(Nc2nc(-c3ccccc3)nc3ccccc23)n[nH]1" shows residual activity below 80%.
Found: t

Lookup: Please let me know if "Nc1n[nH]c2nnc(-c3c(-c4ccccc4)nn4ccccc34)cc12" shows residual activity below 80%.
Found: f

Lookup: Please let me know if "N#Cc1cnc2cnc(NCc3cccnc3)cc2c1Nc1ccc(F)c(Cl)c1" shows residual activity below 80%.
Found: t

====

- Assay System: Serine/threonine-protein kinase ULK3 (Homo sapiens) (UniProt Q6PHR2)
- Sequence (Q6PHR2 whole entry): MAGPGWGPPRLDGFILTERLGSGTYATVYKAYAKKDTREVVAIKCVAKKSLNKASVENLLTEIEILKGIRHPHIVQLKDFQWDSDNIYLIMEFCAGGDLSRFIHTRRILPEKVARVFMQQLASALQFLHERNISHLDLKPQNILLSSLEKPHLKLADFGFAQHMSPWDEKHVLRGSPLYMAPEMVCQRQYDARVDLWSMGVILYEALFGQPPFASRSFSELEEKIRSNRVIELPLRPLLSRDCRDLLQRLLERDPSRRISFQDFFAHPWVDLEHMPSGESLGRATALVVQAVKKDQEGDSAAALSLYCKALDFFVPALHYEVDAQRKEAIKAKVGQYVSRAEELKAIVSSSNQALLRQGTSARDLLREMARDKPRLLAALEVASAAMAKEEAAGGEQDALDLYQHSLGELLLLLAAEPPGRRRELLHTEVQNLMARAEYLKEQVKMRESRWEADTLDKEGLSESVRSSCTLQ
- Condition Info: at 10 µM
# if measured residual activity < 90%: class 1  # else: class 0

For orientation, consider the following solved cases.
In [3]: df
Out[3]:
                              line_notation  qualitative_label
0  Cc1cccc(-c2[nH]c(C(C)(C)C)nc2-c2ccc3c(c2)OCO3)n1            class 0
1  Cn1cc(/C=C2\C(=O)Nc3ccc(S(N)(=O)=O)cc32)c2ccccc21            class 1
2  COc1ccc(S(=O)(=O)N(CCO)c2ccccc2CN(C)C/C=C/c2ccc(Cl)cc2)cc1            class 0
3  O=C(O)c1ccc2c3c1cccc3c(=O)n1c3ccccc3nc21            class 1
4      COc1cc2ncnc(Nc3ccc(O)c(Br)c3)c2cc1OC            class 1
5  N#C/C(=C(\N)Sc1ccc(N)cc1)c1ccccc1C(F)(F)F            class 0
6  CC#CC(=O)Nc1cc2c(Nc3ccc(F)c(Cl)c3)ncnc2cn1            class 0
7        Oc1ccc(Nc2nc(-c3ccc(Cl)cc3)cs2)cc1            class 0
8              Cc1ccc(S(=O)(=O)/C=C/C#N)cc1            class 0
9  O=[N+]([O-])c1ccc(-c2nc(-c3ccc(F)cc3)c(-c3ccncc3)[nH]2)cc1            class 0

Lookup: Please let me know if "Cc1cncc2cccc(S(=O)(=O)N3CCCN(C(=O)CN)C[C@H]3C)c12" shows residual activity below 90%.
Found: class 1

====

- Assay System: Death-associated protein kinase 1 (Homo sapiens) (UniProt P53355)
- Sequence (P53355 whole entry, looked up): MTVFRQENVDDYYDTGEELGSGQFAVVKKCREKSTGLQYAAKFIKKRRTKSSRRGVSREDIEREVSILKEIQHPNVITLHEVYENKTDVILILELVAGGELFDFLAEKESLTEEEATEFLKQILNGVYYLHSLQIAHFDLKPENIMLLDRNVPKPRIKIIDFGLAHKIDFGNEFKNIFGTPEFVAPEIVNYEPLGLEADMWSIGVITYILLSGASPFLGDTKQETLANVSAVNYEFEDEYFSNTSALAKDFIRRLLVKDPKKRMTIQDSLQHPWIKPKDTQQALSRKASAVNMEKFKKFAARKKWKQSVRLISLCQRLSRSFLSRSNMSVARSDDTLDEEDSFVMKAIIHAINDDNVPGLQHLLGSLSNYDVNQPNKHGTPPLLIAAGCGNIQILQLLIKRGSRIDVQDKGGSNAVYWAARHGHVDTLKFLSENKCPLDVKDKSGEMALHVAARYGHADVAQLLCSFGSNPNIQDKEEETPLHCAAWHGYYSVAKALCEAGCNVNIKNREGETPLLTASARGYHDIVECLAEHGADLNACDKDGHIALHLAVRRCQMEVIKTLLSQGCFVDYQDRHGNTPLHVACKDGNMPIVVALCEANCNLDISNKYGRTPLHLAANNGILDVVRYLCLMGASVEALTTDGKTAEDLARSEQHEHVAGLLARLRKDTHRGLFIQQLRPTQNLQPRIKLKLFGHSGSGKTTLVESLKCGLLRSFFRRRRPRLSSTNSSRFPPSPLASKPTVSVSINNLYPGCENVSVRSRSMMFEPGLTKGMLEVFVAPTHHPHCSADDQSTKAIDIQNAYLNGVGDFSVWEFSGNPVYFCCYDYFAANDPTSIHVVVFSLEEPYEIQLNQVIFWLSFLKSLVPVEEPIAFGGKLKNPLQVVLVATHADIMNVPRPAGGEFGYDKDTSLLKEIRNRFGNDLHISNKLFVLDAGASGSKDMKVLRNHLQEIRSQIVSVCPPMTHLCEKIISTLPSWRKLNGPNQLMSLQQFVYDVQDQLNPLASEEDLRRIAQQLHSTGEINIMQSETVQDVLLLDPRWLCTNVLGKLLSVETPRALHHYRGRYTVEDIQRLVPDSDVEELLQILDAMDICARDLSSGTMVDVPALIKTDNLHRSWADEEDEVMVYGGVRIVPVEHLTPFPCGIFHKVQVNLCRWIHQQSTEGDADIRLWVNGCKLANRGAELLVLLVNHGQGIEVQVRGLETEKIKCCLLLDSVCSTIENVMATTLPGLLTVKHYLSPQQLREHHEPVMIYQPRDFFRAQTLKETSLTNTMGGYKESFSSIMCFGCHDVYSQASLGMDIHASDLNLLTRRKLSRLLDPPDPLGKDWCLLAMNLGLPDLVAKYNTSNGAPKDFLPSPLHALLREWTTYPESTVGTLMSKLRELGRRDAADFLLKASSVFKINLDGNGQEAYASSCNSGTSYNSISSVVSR
- Condition Info: at 10 µM
Readout: residual activity (%)
Numeric only. Scale: %

>>> print(df.to_string())
                                   compound            readout  number
0  COc1ccc(S(=O)(=O)N(CCO)c2ccccc2CN(C)C/C=C/c2ccc(Cl)cc2)cc1  residual activity      65
1  N#C/C(=C(\N)Sc1ccc(N)cc1)c1ccccc1C(F)(F)F  residual activity      78
2         O=C1NC(=O)/C(=C\c2ccc3nccnc3c2)S1  residual activity      78
3  O=C1NC(=O)c2cc(Nc3ccc(F)cc3)c(Nc3ccc(F)cc3)cc21  residual activity      76
4  O=c1c2ccccc2[nH]c(=S)n1CCN1CCC(=C(c2ccc(F)cc2)c2ccc(F)cc2)CC1  residual activity      62
5  CC[n+]1c(/C=C/N(C)c2ccccc2)n(-c2ccccc2)c2ccc(-c3nc4ccccc4s3)cc21  residual activity      51

Then this compound:
Lookup: Provide measured residual activity value, entry: "Nc1n[nH]c2nnc(-c3c(-c4ccccc4)nn4ccccc34)cc12"
Found: 88

====

- Assay System: Angiopoietin-1 receptor (Homo sapiens)
- Condition Info: at 10 µM
Readout: residual activity (%)
Numeric only. Scale: %

                              line_notation            readout  number
0  O=C1NC(=O)c2c1c1c3ccccc3[nH]c1c1[nH]c3cc(Br)ccc3c21  residual activity      81
1  O=c1cc(-c2cccc3c2Sc2ccccc2S3)oc(N2CCOCC2)c1  residual activity      61

Then this compound:
Lookup: Provide measured residual activity value, entry: "O=c1c2ccccc2[nH]c(=S)n1CCN1CCC(=C(c2ccc(F)cc2)c2ccc(F)cc2)CC1"
Found: 59

====

- Assay System: Serine/threonine-protein kinase DCLK2 (Homo sapiens) (UniProt Q8N568)
- Sequence (Q8N568 whole entry): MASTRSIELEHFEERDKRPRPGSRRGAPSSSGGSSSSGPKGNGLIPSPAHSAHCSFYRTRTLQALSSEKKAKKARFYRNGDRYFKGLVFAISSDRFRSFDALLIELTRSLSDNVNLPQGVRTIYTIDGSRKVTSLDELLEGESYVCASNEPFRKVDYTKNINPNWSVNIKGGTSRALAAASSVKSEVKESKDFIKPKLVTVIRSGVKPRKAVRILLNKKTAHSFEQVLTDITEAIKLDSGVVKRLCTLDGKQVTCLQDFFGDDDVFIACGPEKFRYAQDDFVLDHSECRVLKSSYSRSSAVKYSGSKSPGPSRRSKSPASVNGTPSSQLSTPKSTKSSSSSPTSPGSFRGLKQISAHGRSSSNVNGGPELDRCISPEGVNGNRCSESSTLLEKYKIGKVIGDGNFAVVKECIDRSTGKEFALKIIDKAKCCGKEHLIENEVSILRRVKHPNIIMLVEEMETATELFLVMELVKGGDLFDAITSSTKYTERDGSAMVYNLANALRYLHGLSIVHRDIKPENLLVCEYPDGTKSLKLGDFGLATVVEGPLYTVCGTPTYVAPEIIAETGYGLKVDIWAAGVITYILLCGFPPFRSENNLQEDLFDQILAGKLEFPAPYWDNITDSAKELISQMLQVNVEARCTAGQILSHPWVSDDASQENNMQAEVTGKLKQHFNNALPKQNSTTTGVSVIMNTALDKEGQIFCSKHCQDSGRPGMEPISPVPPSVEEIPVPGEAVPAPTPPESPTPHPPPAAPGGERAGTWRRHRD
- Condition Info: at 1 µM
residual activity: recorded values
Put your answer as a value accompanied by its unit after it.

>>> print(df.to_string())
                              line_notation  result
0  O=C(Nc1cccc(Nc2cc(Nc3cccc(C(F)(F)F)c3)ncn2)c1)C1CC1     92%

Lookup: Provide measured residual activity value, entry: "Oc1c2ccccc2c2c3c(cccc13)N=N2"
Found: 116%

Lookup: Provide measured residual activity value, entry: "Cc1ccc(NC2=CC(=O)c3sc(C)nc3C2=O)cc1"
Found: 118%

====

- Assay System: Tyrosine-protein kinase FRK (Homo sapiens)
- Condition Info: at 10 µM
# if measured residual activity < 20%: TRUE  # else: FALSE

For orientation, consider the following solved cases.
>>> print(df.to_string())
                              line_notation  qualitative_label
0  Oc1n[nH]c2nnc(-c3c(-c4ccccc4)nn4ccccc34)cc12              FALSE
1  Cc1cccc(-c2[nH]c(C(C)(C)C)nc2-c2ccc3c(c2)OCO3)n1              FALSE
2  O=c1c2ccccc2[nH]c(=S)n1CCN1CCC(=C(c2ccc(F)cc2)c2ccc(F)cc2)CC1              FALSE
3  O=C1NC(=O)c2c1c1c3ccccc3[nH]c1c1[nH]c3cc(Br)ccc3c21              FALSE
4  O=Nc1c(-c2c(O)[nH]c3ccccc23)[nH]c2ccccc12               TRUE

Lookup: Please let me know if "c1ccc2c(-c3ccncc3)c[nH]c2c1" shows residual activity below 20%.
Found: FALSE
